Quick list: caspase activation (% of PBS control) per entry.
Study system: HIF1A
Test description: HeLa, 100 nM transfected, 24 h, mean of 3
Details: ASO
Bases are written 5' to 3'; sugars and linkages follow in the same order, as letters with counts (s phosphorothioate, o phosphodiester; PS: all linkages phosphorothioate). C may stand for cytosine or 5-methylcytosine; the collection does not tell. l = locked nucleic acid (LNA); d = 2'-deoxy (DNA)
// print number alone

GTTACTGCCTTCTTAC (sugars l1 d3 l1 d10 l1, PS) :: 130

[ask] Recorded caspase activation (% of PBS control) for GTTACTGCCTTCTTAC (sugars l4 d7 l2 d1 l2, PS) , please?
[reply] 291

[ask] Lookup TGGCAAGCATCCTGTA (sugars ldlllddddddllddl, PS)
[reply] 495

[ask] And for TGGCAAGCATCCTGTA (sugars l5 d7 l1 d2 l1, PS) ?
[reply] 386

[ask] What about TGGCAAGCATCCT (sugars l2 d8 l1 d1 l1, PS) ?
[reply] 407

[ask] Let us now turn to GTTACTGCCTTCTTAC (sugars l1 d12 l1 d1 l1, PS)
[reply] 103

[ask] Now this one: TGGCAAGCATCCT (sugars ldllddddddldl, PS)
[reply] 377

[ask] Then what about the sequence TGGCAAGCATCCTGTA (sugars lldldddddddlddll, PS) ?
[reply] 460

[ask] Same again, this time with GTTACTGCCTTCTTAC (sugars l1 d10 l1 d2 l2, PS)
[reply] 102

[ask] Quick one: TGGCAAGCATCCTGTA (sugars lldldddddddddldl, PS)
[reply] 522

[ask] Proceed to CAAGCATCCTGTA (sugars l1 d1 l1 d7 l3, PS)
[reply] 198

###

Study system: HIF1A
Test description: HeLa, 100 nM transfected, 24 h, mean of 3
Details: ASO
Bases are written 5' to 3'; sugars and linkages follow in the same order, as letters with counts (s phosphorothioate, o phosphodiester; PS: all linkages phosphorothioate). C may stand for cytosine or 5-methylcytosine; the collection does not tell. l = locked nucleic acid (LNA); d = 2'-deoxy (DNA)
// values below are reported caspase activation (% of PBS control)
Form: value (number only, do not type unit).

Reference set, count: 5
TGGCAAGCATCCTGTA (sugars l2 d9 l2 d1 l2, PS) :: 401
TGGCAAGCATCCTGTA (sugars l4 d7 l1 d3 l1, PS) :: 299
CAAGCATCCTGTA (sugars l1 d11 l1, PS) :: 100
GTTACTGCCTTCTTAC (sugars l5 d7 l4, PS) :: 574
TGGCAAGCATCCTGTA (sugars ldlllddddddlddll, PS) :: 410

[ask] I have this sequence here, TACTGCCTTCTTA (sugars l1 d9 l1 d1 l1, PS) , and I need its recorded caspase activation (% of PBS control).
[reply] 142

[ask] How about this sequence: TGGCAAGCATCCTGTA (sugars ldldlddddddldddl, PS)
[reply] 179

[ask] How about this sequence: TGGCAAGCATCCTGTA (sugars l5 d8 l1 d1 l1, PS)
[reply] 401

[ask] // repeat for TGGCAAGCATCCTGTA (sugars ldldldddddddlldl, PS) and report
[reply] 218

[ask] Item: TGGCAAGCATCCTGTA (sugars llldlddddddlldll, PS)
[reply] 458

[ask] Try the sequence GTTACTGCCTTCTTAC (sugars lldldddddddllldl, PS)
[reply] 307

[ask] Okay, and GTTACTGCCTTCTTAC (sugars ldldlddddddddldl, PS) ?
[reply] 201
